# Study target: UniProt:P54829
# Test summary: STEP phosphatase inhibitor potency, dose response, orthogonal assay for STEP inhibitor project, biochemical, colorimetric absorbance (AID 624207)
Recorded metric: IC50 (µM)
Give bare numbers, in µM.

Examples from the recorded data:
Smiles string	IC50 (µM)
COc1ccc(NC(=S)N(CCC(C)C)C2CCN(C(C)C)CC2)cc1Cl	10.6
COc1ccccc1NS(=O)(=O)c1cc(NC(=O)c2sccc2C)ccc1N1CCCC1	6.95

The record that follows has no IC50 shown yet.
Query string: Field request: IC50 | item: `CSc1ccc(CN=Nc2ccc(S(=O)(=O)Nc3ccccc3C(=O)O)cc2[N+](=O)[O-])cc1`
Result string: 4.99

====

Please provide measured IC50 for the entries that follow.
# Study target: Tyrosine-protein phosphatase non-receptor type 5 (Homo sapiens, UniProt P54829)
# Sequence (P54829 whole entry): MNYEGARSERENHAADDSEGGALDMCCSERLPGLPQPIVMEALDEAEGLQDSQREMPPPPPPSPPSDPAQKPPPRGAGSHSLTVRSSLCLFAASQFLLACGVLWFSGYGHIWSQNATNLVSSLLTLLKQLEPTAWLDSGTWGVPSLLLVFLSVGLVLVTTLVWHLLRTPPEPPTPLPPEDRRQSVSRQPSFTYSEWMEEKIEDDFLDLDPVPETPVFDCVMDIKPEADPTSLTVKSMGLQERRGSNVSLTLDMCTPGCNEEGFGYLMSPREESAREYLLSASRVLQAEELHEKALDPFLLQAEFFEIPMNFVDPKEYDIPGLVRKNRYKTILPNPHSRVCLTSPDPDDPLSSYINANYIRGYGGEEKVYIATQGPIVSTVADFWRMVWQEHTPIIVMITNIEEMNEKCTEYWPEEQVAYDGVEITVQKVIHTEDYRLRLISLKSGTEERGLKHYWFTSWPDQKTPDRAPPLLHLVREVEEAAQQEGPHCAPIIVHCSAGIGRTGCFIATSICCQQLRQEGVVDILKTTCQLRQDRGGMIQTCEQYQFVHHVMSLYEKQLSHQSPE
# Test summary: STEP phosphatase inhibitor potency, dose response, orthogonal assay for STEP inhibitor project, biochemical, colorimetric absorbance (AID 624207)

Example cases with answers are listed next.
Molecule	IC50
Cc1cc(C)c(NC(S)=NCC2CCN(C(C)c3ccccc3)C2)c(C)c1 (stereo unspecified)	12.1 µM
Cc1c(C)n(C(=O)CSc2nc3ccccc3[nH]2)c2ccccc12	> 80 µM
COCCCN(C(S)=Nc1c(C)cc(C)cc1C)C(C)c1ccccn1 (stereo unspecified)	> 80 µM
O=C1Nc2ccc3sc4ccccc4c3c2C1=O	> 80 µM
O=C(N/N=C/c1ccncc1)c1cccc(S(=O)(=O)Nc2ccc(Cl)cc2)c1	19.7 µM
O=C(C=Cc1ccc(Cl)cc1)NC(=S)Nc1ccc(C(=O)O)cc1	> 80 µM
O=C(NC1CCCCCC1)C(=S)NC1CCCCC1 [SMR000296231]	> 80 µM
O=C(N/N=C/c1ccoc1)c1cc(O)cc(O)c1	> 80 µM

For every item below, please supply its IC50.
1. CCOc1ccc(C(=O)Nc2cc(-c3nc4ccccc4[nH]3)ccc2Cl)cc1[N+](=O)[O-] [MLS000574482]
2. Cc1ccc(-c2nc3ncccc3o2)cc1NC(=O)CC(C)C
3. COc1ccc2cc3c(N)nn(C(=O)c4cccc(F)c4)c3nc2c1 [MLS000731294]

Result string:
1. > 80 µM
2. > 80 µM
3. > 80 µM

====

# Study target: Tyrosine-protein phosphatase non-receptor type 5 (Homo sapiens, UniProt P54829)
# Sequence (P54829 whole entry): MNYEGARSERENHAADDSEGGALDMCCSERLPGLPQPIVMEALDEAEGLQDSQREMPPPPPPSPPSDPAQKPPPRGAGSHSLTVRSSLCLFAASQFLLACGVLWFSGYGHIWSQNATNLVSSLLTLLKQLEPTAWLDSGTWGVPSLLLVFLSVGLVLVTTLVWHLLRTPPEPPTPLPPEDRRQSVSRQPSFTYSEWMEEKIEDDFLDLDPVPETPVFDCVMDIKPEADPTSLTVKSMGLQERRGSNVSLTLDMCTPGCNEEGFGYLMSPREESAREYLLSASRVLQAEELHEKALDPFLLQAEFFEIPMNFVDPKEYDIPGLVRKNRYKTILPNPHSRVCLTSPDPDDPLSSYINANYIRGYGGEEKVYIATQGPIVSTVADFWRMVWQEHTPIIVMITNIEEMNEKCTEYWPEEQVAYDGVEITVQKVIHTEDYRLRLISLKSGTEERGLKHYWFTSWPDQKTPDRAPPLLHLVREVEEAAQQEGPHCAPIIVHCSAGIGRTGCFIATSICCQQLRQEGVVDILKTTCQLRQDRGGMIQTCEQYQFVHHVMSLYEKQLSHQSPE
# Test summary: STEP phosphatase inhibitor potency, dose response, orthogonal assay for STEP inhibitor project, biochemical, colorimetric absorbance (AID 624207)
# Stated conditions: inactive by the depositor's call
Recorded metric: pIC50
One number for each entry, as −log10 of the molar value.

Smiles string	Recorded metric	Observed value
Cc1c(CC(=O)NCCCCCC(=O)O)c(=O)oc2c(C)c3oc4c(c3cc12)CCCC4	pIC50	4.49
COc1cc(Cl)ccc1N=C(S)N(CCCN1CCOCC1)Cc1cn(C)c2ccccc12	pIC50	4.46
O=C(COc1ccc(/C=N/NC(=O)c2ccccc2O)cc1)Nc1ccccc1	pIC50	4.63

Each of the following entries comes with a recorded value; kindly state pIC50 for each.
1. O=C(N/N=C/c1cccc(Br)c1)c1ccc(N2CCCC2=O)cc1
2. O=C(N/N=C/c1ccc(OC(=O)c2cccs2)cc1)c1cccc(F)c1
3. Cc1cc(C)c2nc(-c3ccccn3)cc(C(=O)Nc3ccc(S(=O)(=O)Nc4onc(C)c4C)cc3)c2c1
4. S=C(c1ccc(Br)cc1)N1CCN(Cc2ccccc2)CC1
5. COC(=O)c1ccccc1CSc1nsc(/C=C/N(C)C)c1C#N
6. Cc1c(C)c2ccc(OCC(=O)Nc3ccc(S(N)(=O)=O)cc3)c(C)c2oc1=O

Result string:
[4.64, 4.59, 4.38, 4.26, 4.47, 4.44]

====

Would you kindly list IC50 for each of these molecules?
# Study target: Tyrosine-protein phosphatase non-receptor type 5 (Homo sapiens, UniProt P54829)
# Test summary: STEP phosphatase inhibitor potency, dose response, orthogonal assay for STEP inhibitor project, biochemical, colorimetric absorbance (AID 624207)
# Stated conditions: inactive by the depositor's call
One number for each entry, in µM.

Molecule	Recorded metric	Observed value
CN1CCN(C(=S)c2ccc(Br)cc2)CC1	IC50	42

Hi, could you look up IC50 for each item in my list?
1. Cc1sc2nc(CSC(C)C(=O)Nc3ccc(Cl)cn3)nc(O)c2c1C (configuration not stated)
2. CN1CCN(C(S)=Nc2ccc(S(N)(=O)=O)cc2)CC1
3. O=S(=O)(O)c1cc(O)c2cc(Nc3ccccc3)ccc2c1
4. Sc1ncnc2c1ncn2-c1ccc(Cl)cc1
5. Cc1ccc(NC(=O)c2ccc3nc(N4CCOCC4)sc3c2)c(Cl)c1
6. S=C(c1cn(CCOc2ccccc2)c2ccccc12)N1CCCC1
7. NC(=O)C1(N2CCCCC2)CCN(C(=S)Nc2ccc(S(N)(=O)=O)cc2)CC1

Result string:
38.4
41.5
24.1
64.8
22.4
41.3
25.9

Give IC50 for each of the items listed below.
1. CCN1CCN(C(=S)c2ccc(Cl)c(Cl)c2)CC1
2. COc1cc(/C=N/NC(=O)c2ccccc2O)ccc1OCC(=O)Nc1ccccc1
3. CCN1CCN(C(=S)c2ccc(Br)cc2)CC1
4. Cc1nn(C)cc1C=NNC(=S)Nc1ccccc1
5. CCCc1cc(=O)oc2cc(OCC(=O)Nc3ccc(S(N)(=O)=O)cc3)ccc12
6. Cc1ccc(C(=S)N2CCN(Cc3ccccc3)CC2)s1

Result string:
1: 39.3; 2: 44.7; 3: 63.9; 4: 57.9; 5: 30.6; 6: 32

Would you mind listing IC50 for each of the following molecules?
1. CCN1CCN(C(=S)c2ccc(Cl)cc2)CC1
2. CCOC(=O)c1c(NC(=O)OC)sc(C(=O)N(CC)CC)c1C
3. CCCCC(=O)Nc1ccc(C(=O)NNC(=O)c2ccc(C)c(Br)c2)cc1
4. O=C(N/N=C/c1cccc([N+](=O)[O-])c1)c1ccc(Br)cc1
5. CCOC(=O)N1CCC(N(CCN(C)C)C(=S)Nc2cc(Cl)ccc2C)CC1
6. O=C(N/N=C/c1cccnc1)c1ccc(NC(=O)c2cccc(Cl)c2)cc1
7. O=C(NCCCn1ccnc1)C(Cc1ccccc1)N1C(=O)c2ccccc2C1=O (configuration not stated)
8. COc1ccc(NC(=S)NCCCN2CCCC2)cc1Cl

Result string:
[25.5, 44.3, 53.8, 21.5, 77.1, 45.6, 72.3, 31.1]
